Tested on: Kuramochi cells labeled with mApple-H2B
Experiment: IncuCyte Cell Proliferation Assay
Format: cell-based
Conditions: 72 h
observation type: IC50

Test item C[C@@H](OC(C)(C)C1CCCCC1)[C@H](NC(=O)[C@@H]1CN(C(=O)c2cncs2)CC12CN(C(=O)[C@H]1CC1(C)C)C2)C(=O)N1CCCCC1 ; Kuramochi cells labeled with mApple-H2B; reported IC50 was 0.5 to 5 µM

Test item C[C@@H](OCC1CCC2(CCC2)CC1)[C@H](NC(=O)[C@@H]1CN(C(=O)c2cnn(Cc3ccccc3)c2)CC12CN(C(=O)[C@H]1CC1(C)C)C2)C(=O)N1CCC(c2cnc[nH]2)CC1 ; Kuramochi cells labeled with mApple-H2B; reported IC50 was ≤ 0.5 µM

Test item C[C@@H](OCC1CCC(F)(F)CC1)[C@H](NC(=O)C1CN(C(=O)c2cncs2)CC12CN(C(=O)[C@H]1CC1(C)C)C2)C(=O)N1CCC(OC(F)(F)F)CC1 (stereo partly drawn) ; Kuramochi cells labeled with mApple-H2B; reported IC50 was ≤ 0.5 µM

Test item CC1(C)C[C@@H]1C(=O)N1CC2(CN(C(=O)c3cncs3)C[C@@H]2C(=O)N[C@@H](COCC2CCCCC2)C(=O)N2CCCCC2)C1 ; Kuramochi cells labeled with mApple-H2B; reported IC50 was > 20 µM

Test item CC1(C)C[C@@H]1C(=O)N1CC2(CN(C(=O)c3cnn(Cc4ccccc4)c3)C[C@H]2C(=O)N[C@@H]2CCN(c3ccccc3)C2)C1 ; Kuramochi cells labeled with mApple-H2B; reported IC50 was 5 to 20 µM

Test item CNC(=O)[C@@H](NC(=O)[C@H]1CN(C(=O)c2cnn(Cc3ccccc3)c2)CC12CN(C(=O)OC(C)(C)C)C2)[C@@H](C)OCc1ccccc1 ; Kuramochi cells labeled with mApple-H2B; reported IC50 was > 20 µM

Ref: patent US12065445B2
